biological target: CYP3A4 (Homo sapiens); construct: recombinant; E. coli microsomes; with NADPH cytochrome P450 reductase (POR, P16435), coexpressed; experiment: fluorogenic Vivid BOMR substrate assay with recombinant CYP3A4/POR E. coli microsomes
Sequence (P08684 13-503 S18F): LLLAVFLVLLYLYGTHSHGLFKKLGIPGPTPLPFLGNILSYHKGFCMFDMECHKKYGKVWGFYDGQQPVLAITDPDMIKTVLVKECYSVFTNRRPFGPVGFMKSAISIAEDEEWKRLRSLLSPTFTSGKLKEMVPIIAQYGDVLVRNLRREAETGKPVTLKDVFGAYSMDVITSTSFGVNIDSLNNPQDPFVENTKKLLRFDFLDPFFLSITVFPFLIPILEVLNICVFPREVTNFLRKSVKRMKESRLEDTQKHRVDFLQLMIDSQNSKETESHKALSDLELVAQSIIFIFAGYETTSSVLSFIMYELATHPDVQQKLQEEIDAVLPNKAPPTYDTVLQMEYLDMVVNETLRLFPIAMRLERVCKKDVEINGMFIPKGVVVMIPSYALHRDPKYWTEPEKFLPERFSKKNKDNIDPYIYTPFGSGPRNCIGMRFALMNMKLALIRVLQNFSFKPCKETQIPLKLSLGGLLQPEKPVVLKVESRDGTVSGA
Sequence (P16435 2-677, further chain): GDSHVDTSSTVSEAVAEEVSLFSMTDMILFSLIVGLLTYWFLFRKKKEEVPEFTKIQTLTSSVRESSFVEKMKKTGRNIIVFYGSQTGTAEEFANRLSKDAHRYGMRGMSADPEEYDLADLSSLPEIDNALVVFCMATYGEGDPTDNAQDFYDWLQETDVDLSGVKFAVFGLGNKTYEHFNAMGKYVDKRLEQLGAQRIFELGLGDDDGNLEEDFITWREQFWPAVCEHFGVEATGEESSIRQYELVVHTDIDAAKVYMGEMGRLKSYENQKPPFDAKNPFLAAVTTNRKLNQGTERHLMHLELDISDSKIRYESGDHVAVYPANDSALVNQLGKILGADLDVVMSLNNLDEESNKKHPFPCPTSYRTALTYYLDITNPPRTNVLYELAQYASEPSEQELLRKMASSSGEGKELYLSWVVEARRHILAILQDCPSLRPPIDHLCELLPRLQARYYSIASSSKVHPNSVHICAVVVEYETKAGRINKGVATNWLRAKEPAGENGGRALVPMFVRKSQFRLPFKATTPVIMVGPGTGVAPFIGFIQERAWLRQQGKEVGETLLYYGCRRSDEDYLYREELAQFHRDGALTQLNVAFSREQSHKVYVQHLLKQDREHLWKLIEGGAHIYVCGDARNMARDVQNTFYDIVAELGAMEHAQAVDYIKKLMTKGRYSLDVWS
PROPERTY_MEASURED: IC50 (µM)
Report the figure in µM without appending any unit label.

Field request: IC50 | item: `COc1ccc(-c2cc(=O)c3c(O)cc(O)cc3o2)cc1-c1c(O)cc(O)c2c(=O)cc(-c3ccc(O)cc3)oc12`
12.9
